Test Summary: Aggregate analysis by widefield fluorescence microscopy
Format: physicochemical
Run Conditions: Fig S8 panels A, C
Listed here are substances together with their documented log Avg Area in 3 * ( (1330 µm *1330 µm)).
Value Type: log Avg Area in 3 * ( (1330 µm *1330 µm))

| Substance | Endpoint Value |
| --- | --- |
| HHHHKIKIQINMYYYY [TM16] | 1.987 |
| CSISIQI [TM141] | 2.051 |
| KWKWQW [KB3] | 2.049 |
| CKIKQII [MG4a] | 2.044 |

----------
Tested on: HIV-1 infection of TZM-bl cells
Test Summary: HIV-1 infectivity enhancement assay, β-galactosidase luminescence
Format: cell-based
Run Conditions: infectivity class (low / medium / high) of each library peptide; main list in c1-c6, same classes repeated in sub-lists of sequences containing the hydrophobicity/charge patterns P+,H0,P+,H0,P0,H0,P0; P+,H0,P0,H0,P0,H0,P0; P+,H0,P0,H0
Value Type: infectivity

| Substance | Subject Of Test | Value Type | Endpoint Value |
| --- | --- | --- | --- |
| CEIEIQI [AR2/ TM142] | HIV-1 infection of TZM-bl cells | infectivity | low |
| QCKFKQFFNMWQ [CK10] | HIV-1 infection of TZM-bl cells | infectivity | medium |
| NMWQKAKAQA [JG10] | HIV-1 infection of TZM-bl cells | infectivity | low |
| RGDSKIKIQIC [TM113 / RC11] | HIV-1 infection of TZM-bl cells | infectivity | medium |
| KIKQIIN [JGA3] | HIV-1 infection of TZM-bl cells | infectivity | low |
| KIKIKIQINMWQ [VH9] | HIV-1 infection of TZM-bl cells | infectivity | high |
| CKFKFQFNMWQ [BL2] | HIV-1 infection of TZM-bl cells | infectivity | high |
| PPFHPPPFHP [CN22] | HIV-1 infection of TZM-bl cells | infectivity | low |
| NMWQKIKIQI [JG9] | HIV-1 infection of TZM-bl cells | infectivity | medium |
| KFKFQFW [TM71] | HIV-1 infection of TZM-bl cells | infectivity | medium |
| KVKVQVVV [TG8] | HIV-1 infection of TZM-bl cells | infectivity | low |
| KYKGAIIGNIK [CN19] | HIV-1 infection of TZM-bl cells | infectivity | low |
| CHLHLQL [CN9] | HIV-1 infection of TZM-bl cells | infectivity | low |
| KIKIKIQI [TG13] | HIV-1 infection of TZM-bl cells | infectivity | low |
| KIKIQINMAQ [JR2] | HIV-1 infection of TZM-bl cells | infectivity | medium |
| CEFEFQF [KB12] | HIV-1 infection of TZM-bl cells | infectivity | low |
| KFKFQFF [TG6] | HIV-1 infection of TZM-bl cells | infectivity | medium |
| CEIEIQINMWQ [TM143] | HIV-1 infection of TZM-bl cells | infectivity | medium |
| RGECKFKFQF [CN16] | HIV-1 infection of TZM-bl cells | infectivity | medium |
| QCKIKQIINM [CK5] | HIV-1 infection of TZM-bl cells | infectivity | medium |
| CKAKAQANMWQ [BL8] | HIV-1 infection of TZM-bl cells | infectivity | low |
| RGDKIKIQINMC [psis29] | HIV-1 infection of TZM-bl cells | infectivity | high |
| HHHHKIKIKIKIYYYY [TM6] | HIV-1 infection of TZM-bl cells | infectivity | medium |
| KNERIKNERI [CN3] | HIV-1 infection of TZM-bl cells | infectivity | low |
| CKIKIQINMW [TM86] | HIV-1 infection of TZM-bl cells | infectivity | high |
| HGEHGEHGE [CN7] | HIV-1 infection of TZM-bl cells | infectivity | low |
| RGDKIKIQINMWQ [MG9a] | HIV-1 infection of TZM-bl cells | infectivity | high |
